Biological target: T1, TRβ1 DBD-LBD (TR DL, TRβ1ΔAB) (human, UniProt P10828 102-461)
T1 sequence: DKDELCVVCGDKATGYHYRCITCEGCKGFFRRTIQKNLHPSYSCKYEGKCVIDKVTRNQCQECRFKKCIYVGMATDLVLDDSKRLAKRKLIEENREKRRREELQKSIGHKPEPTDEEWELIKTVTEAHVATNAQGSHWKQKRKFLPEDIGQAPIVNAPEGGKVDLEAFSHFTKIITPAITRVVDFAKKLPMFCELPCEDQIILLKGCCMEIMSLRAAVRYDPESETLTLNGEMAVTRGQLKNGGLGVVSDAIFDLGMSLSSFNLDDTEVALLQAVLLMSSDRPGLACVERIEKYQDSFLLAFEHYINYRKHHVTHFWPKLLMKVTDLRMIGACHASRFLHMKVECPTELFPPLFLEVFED
Experiment: fluorescence anisotropy; T3; Hill n 2±0.4; Fluorescence anisotropy: 10 nM DNA, 20 mM Hepes pH 8.0, 50 mM NaCl, 1 mM MgCl2, 3 mM DTT, 5% glycerol, 10°C; agarose gel 1.3% in 0.5x TBE
Settings: protein: recombinant; tags: His (pET28a); chain copies: 2; label: 5' fluorescein (FITC) on forward strand; blunt
recorded-metric: pKd
Notebook: values listed as pKd are -log10 of the concentration (mol/L).

Look up pKd for this binder: DR4 TRE (dsDNA) DNA 1: AGTTCAGGTCACAGGAGGTCAGAG DNA 2: CTCTGACCTCCTGTGACCTGAACT 5.70

// provenance: paper PMC2935386
